Target: Serine/threonine-protein kinase 16 (Homo sapiens) (UniProt O75716)
Sequence (O75716 whole entry, looked up): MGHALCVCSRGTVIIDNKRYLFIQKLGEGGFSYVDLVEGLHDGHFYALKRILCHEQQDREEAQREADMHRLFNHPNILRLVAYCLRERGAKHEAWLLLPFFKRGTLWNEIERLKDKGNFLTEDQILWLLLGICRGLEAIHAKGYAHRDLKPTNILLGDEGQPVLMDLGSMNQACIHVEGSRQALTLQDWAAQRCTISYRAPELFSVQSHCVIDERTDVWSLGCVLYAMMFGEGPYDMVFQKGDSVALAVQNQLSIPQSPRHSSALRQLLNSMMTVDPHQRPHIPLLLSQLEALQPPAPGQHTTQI
Assay: ligand-induced STK16 melting temperature shift – biophysical, recombinant human kinase, DSF (AID 395)
Conditions: recombinant STK16, DSF thermal shift, SYPRO orange; at 10 µM; protein 2 µM; buffer 10 mM HEPES; active compounds read high
metric: Tm shift

{"compound": "O=c1cc(-c2ccc(O)cc2)oc2cc(O)cc(O)c12", "Tm shift": "4.78 °C"}
{"compound": "O=C1c2ccccc2-c2n[nH]c3cccc1c23", "Tm shift": "6.85 °C"}
{"compound": "O=C1Nc2ccccc2/C1=C/c1ccc[nH]1", "Tm shift": "4.28 °C"}
{"compound": "Nc1ncnc2c1c(I)cn2[C@@H]1O[C@H](CO)C(O)C1O (stereo not given in full)", "Tm shift": "3.88 °C"}
{"compound": "c1ccc(-c2cnc3ccc(NCc4cccs4)nn23)cc1", "Tm shift": "3.62 °C"}
{"compound": "O=c1[nH]c2ncc(-c3cccnc3)nc2n1C1CCCC1", "Tm shift": "5.29 °C"}

So what's the measured Tm shift for this one? "Clc1ccc(-c2cnn3ccc(NCc4cccnc4)nc23)cc1"
3.85 °C
